System: Ba/F3 P210-BCR-ABL1 RUNX1wt/wt control (mouse)
Assay: drug sensitivity score (DSS) (DSS score); higher = more sensitive (stronger growth inhibition); extreme values may be limits of the assay
Is drug sensitivity score at least 0.8? Then true. If not, false.

## Task Quick check, drug sensitivity score >= 0.8? Cc1nc(-c2cn3c(n2)-c2ccc(-c4cnn(C(C)(C)C(N)=O)c4)cc2OCC3)n(C(C)C)n1
## Result false

## Task Quick check, drug sensitivity score >= 0.8? Cc1nc(C(=O)NCC(=O)O)c(O)c2ccc(Oc3ccccc3)cc12
## Result false

## Task Quick check, drug sensitivity score >= 0.8? Cn1ncnc1[C@H]1c2n[nH]c(=O)c3cc(F)cc(c23)N[C@@H]1c1ccc(F)cc1
## Result true

## Task Quick check, drug sensitivity score >= 0.8? CO[C@H]1C[C@@H]2CC[C@@H](C)[C@@](O)(O2)C(=O)C(=O)N2CCCC[C@H]2C(=O)O[C@H]([C@H](C)C[C@@H]2CC[C@@H](O)[C@H](OC)C2)CC(=O)[C@H](C)/C=C(\C)[C@@H](O)[C@@H](OC)C(=O)[C@H](C)C[C@H](C)/C=C/C=C/C=C/1C
## Result false

## Task Quick check, drug sensitivity score >= 0.8? O=C(c1ccc(OCCN2CCCCC2)cc1)c1c(-c2ccc(O)cc2)sc2cc(O)ccc12
## Result true

## Task Quick check, drug sensitivity score >= 0.8? CCN(CC)CCNC(=O)c1c(C)[nH]c(/C=C2\C(=O)Nc3ccc(-c4csc(-c5ccccc5)n4)cc32)c1C
## Result false

## Task Quick check, drug sensitivity score >= 0.8? O=C(/C=C\n1cnc(-c2cc(C(F)(F)F)cc(C(F)(F)F)c2)n1)NNc1ccccn1 [Verdinexor]
## Result true

## Task Quick check, drug sensitivity score >= 0.8? CNC(=O)c1ccc(-c2cnc3ncc(Cc4ccc5ncccc5c4)n3n2)cc1F
## Result false

## Task Quick check, drug sensitivity score >= 0.8? CCOC(=O)CCNc1cc(N2CCc3ccccc3CC2)nc(-c2ccccn2)n1
## Result true

## Task Quick check, drug sensitivity score >= 0.8? CN1CCN(CCOc2cc(OC3CCOCC3)c3c(Nc4c(Cl)ccc5c4OCO5)ncnc3c2)CC1
## Result true

## Task Quick check, drug sensitivity score >= 0.8? CNC(=O)c1cccc2cc(Oc3ccnc4cc(OCC5(N)CC5)c(OC)cc34)ccc12
## Result false

## Task Quick check, drug sensitivity score >= 0.8? CCCCCCCCCCCCCCCCCCOP(=O)([O-])OC1CC[N+](C)(C)CC1
## Result false

## Task Quick check, drug sensitivity score >= 0.8? CN1CCN(C(=O)c2ccc3cc(CCNc4ncnc5ccc(C#N)cc45)ccc3c2)CC1
## Result false

## Task Quick check, drug sensitivity score >= 0.8? Cc1cc2c(F)c(Oc3ncnn4cc(OC[C@@H](C)O)c(C)c34)ccc2[nH]1
## Result false

## Task Quick check, drug sensitivity score >= 0.8? C[C@@H]1CN(Cc2ccc(F)cc2)[C@@H](C)CN1C(=O)c1cc2c(C(=O)C(=O)N(C)C)cn(C)c2cc1Cl
## Result false

## Task Quick check, drug sensitivity score >= 0.8? CCCCC(=O)OCC(=O)[C@]1(O)Cc2c(O)c3c(c(O)c2[C@@H](O[C@H]2C[C@H](NC(=O)C(F)(F)F)[C@H](O)[C@H](C)O2)C1)C(=O)c1c(OC)cccc1C3=O
## Result true

## Task Quick check, drug sensitivity score >= 0.8? COc1cc([C@@H]2c3cc4c(cc3[C@@H](O[C@@H]3O[C@@H]5CO[C@@H](c6cccs6)O[C@H]5[C@H](O)[C@H]3O)[C@H]3COC(=O)[C@H]23)OCO4)cc(OC)c1O [Teniposide]
## Result false

## Task Quick check, drug sensitivity score >= 0.8? CC(=O)c1cc2c(o1)C(=O)c1ccccc1C2=O
## Result true

## Task Quick check, drug sensitivity score >= 0.8? COc1c(OCCCN2CCOCC2)ccc2c1N=C(NC(=O)c1cnc(N)nc1)N1CCN=C21
## Result true

## Task Quick check, drug sensitivity score >= 0.8? O=C(c1cccc(Cl)c1F)N1CCN(Cc2cccc(Nc3nccs3)n2)CC1
## Result true

## Task Quick check, drug sensitivity score >= 0.8? N#Cc1ccc(C(c2ccc(C#N)cc2)n2cncn2)cc1
## Result false

## Task Quick check, drug sensitivity score >= 0.8? COc1cccc(-c2ccc(NC(=O)C3=C(C(=O)O)CCC3)c(F)c2)c1
## Result false

## Task Quick check, drug sensitivity score >= 0.8? COc1cc(Br)c(Nc2nc(-c3c(C)nc4ncccn34)cs2)c(Br)c1
## Result true

## Task Quick check, drug sensitivity score >= 0.8? CC(C)c1cc(-c2n[nH]c(=O)n2-c2ccc3c(ccn3C)c2)c(O)cc1O
## Result true

## Task Quick check, drug sensitivity score >= 0.8? N#Cc1ccc(COC[C@H]2O[C@@H](n3c(NCc4ccc(Cl)c(Cl)c4)nc4c(N)ncnc43)[C@H](O)[C@@H]2O)cc1
## Result true

## Task Quick check, drug sensitivity score >= 0.8? COC[C@H](NC(=O)c1cnc(C)s1)C(=O)N[C@@H](COC)C(=O)N[C@@H](Cc1ccccc1)C(=O)[C@@]1(C)CO1
## Result true

## Task Quick check, drug sensitivity score >= 0.8? C=CC[C@@H]1/C=C(\C)C[C@H](C)C[C@H](OC)[C@H]2O[C@@](O)(C(=O)C(=O)N3CCCC[C@H]3C(=O)O[C@H](/C(C)=C/[C@@H]3CC[C@@H](O)[C@H](OC)C3)[C@H](C)[C@@H](O)CC1=O)[C@H](C)C[C@@H]2OC
## Result false

## Task Quick check, drug sensitivity score >= 0.8? CCC/C=C/C=C/C(=O)O[C@H]1/C(=C/C(=O)OC)C[C@H]2C[C@H]([C@@H](C)O)OC(=O)C[C@H](O)C[C@@H]3C[C@H](OC(C)=O)C(C)(C)[C@](O)(C[C@@H]4C/C(=C/C(=O)OC)C[C@H](/C=C/C(C)(C)[C@]1(O)O2)O4)O3
## Result true
